Values from ChEMBL document CHEMBL3217631

Target protein (sequence): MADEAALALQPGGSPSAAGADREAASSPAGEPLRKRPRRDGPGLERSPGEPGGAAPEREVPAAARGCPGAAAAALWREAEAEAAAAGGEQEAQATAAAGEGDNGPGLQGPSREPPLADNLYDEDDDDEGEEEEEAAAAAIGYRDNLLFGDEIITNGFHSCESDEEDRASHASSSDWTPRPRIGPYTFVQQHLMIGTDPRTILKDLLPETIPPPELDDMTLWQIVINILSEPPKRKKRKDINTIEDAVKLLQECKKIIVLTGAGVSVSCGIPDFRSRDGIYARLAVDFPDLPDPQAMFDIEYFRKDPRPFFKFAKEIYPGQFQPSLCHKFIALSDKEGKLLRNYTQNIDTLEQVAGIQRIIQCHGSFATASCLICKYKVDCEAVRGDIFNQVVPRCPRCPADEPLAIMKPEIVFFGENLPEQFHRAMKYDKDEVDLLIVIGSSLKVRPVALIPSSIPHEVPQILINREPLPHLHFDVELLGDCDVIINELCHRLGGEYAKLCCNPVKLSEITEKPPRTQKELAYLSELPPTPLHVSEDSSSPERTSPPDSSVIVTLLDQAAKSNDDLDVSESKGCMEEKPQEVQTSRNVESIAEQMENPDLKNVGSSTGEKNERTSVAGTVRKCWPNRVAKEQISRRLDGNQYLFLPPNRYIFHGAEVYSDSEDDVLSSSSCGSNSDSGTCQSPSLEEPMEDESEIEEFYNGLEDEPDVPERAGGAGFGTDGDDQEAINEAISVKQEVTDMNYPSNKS
Square brackets hold non-standard residues; d marks the D form. Peptide text beside a SMILES is read from it. Asu = N[C@@H](CCCCCC(=O)O)C(=O)O

compound	unit-spec	Ki
CSCC[C@H](NC(=O)[C@H](CC(C)C)NC(=O)[C@H](CCCCCC(N)=O)NC(=O)[C@H](CCCCN)NC(=O)[C@H](Cc1cnc[nH]1)NC(C)=O)C(N)=O (Ac-HK[Asu](NH2)LM-NH2)	nM	2600
